Where do the numbers come from? From the SangsterLogP compilation.

test: method code SF, from Hansch, C. & Leo, A. (1987). Log P database [Dataset]. Pomona College Medicinal Chemistry Project.
Measured logP accompanies every entry in the list below.
Reply briefly: the number, and no unit.

CCC=O: 0.59
O=c1[nH]cc(CO)c(=O)[nH]1: -1.94
C1COCCO1: -0.27
Cc1ccc(Nc2ccc(O)c3c2C(=O)c2ccccc2C3=O)cc1: 3.12
CCCCC1OC(=O)c2cc(Cl)ccc21 (centres undefined): 3.53

Entry NC(=O)c1cccc(Br)c1 , logP reported as 1.65

Entry CCOC(=O)C(=Cc1ccccc1Cl)C(C)=O , logP reported as 2.84

====

Measured logP accompanies every entry in the list below.
experiment: method code SF, from Hansch, C. & Leo, A. (1987). Log P database [Dataset]. Pomona College Medicinal Chemistry Project.
Reply briefly: the number, and no unit.

CCC(=O)O[C@]1(C(=O)CO)[C@H](C)C[C@H]2[C@@H]3C[C@H](F)C4=CC(=O)C(Cl)=C[C@]4(C)[C@@]3(F)[C@@H](O)C[C@@]21C: 2.99
c1ccc2oncc2c1: 1.63
O=CNc1nccs1: 0.54
COc1ccc(OC(=O)N(C)C)cc1: 1.53

Entry CCSCC1=Nc2cc(Cl)ccc2S(=O)(=O)N1 , logP reported as 2.26

Entry Cc1ccc(/C=C/[N+](=O)[O-])cc1 , logP reported as 2.66

Entry O=C(Nc1ccccc1)Nc1ccc(Cl)c(Cl)c1 , logP reported as 4.7

Entry CC(=O)Nc1ccc(C(C)=O)cc1 , logP reported as 1.24

Entry CC(C)CCO[N+](=O)[O-] , logP reported as 2.84

Entry COc1cccc(C=C(C(C)=O)C(C)=O)c1 , logP reported as 1.79

Entry Oc1ccccc1/C=N/c1ccccc1 , logP reported as 3.09

Entry O=C(Nc1ccccc1)c1cc(N2CC2)c([N+](=O)[O-])cc1[N+](=O)[O-] , logP reported as 2.23

Entry CNP(=O)(OC)Oc1cccc(C(C)(C)C)c1 (configuration not stated) , logP reported as 2.65

====

Measured logP accompanies every entry in the list below.
experiment: method code SF, from Hansch, C. & Leo, A. (1987). Log P database [Dataset]. Pomona College Medicinal Chemistry Project.

Use these answered entries as a reference point.
CC(C)c1ccccc1SCc1c(O)c(C(=O)O)cc2ccccc12: 5.06
CCCOCCC(=O)N(C)c1ccc(S(=O)(=O)N(C)C)cc1: 1.26
C=CCOc1ccccc1: 2.94

Entry NC(=O)c1cccc([N+](=O)[O-])c1 , logP reported as 0.77
